For each entry below, report its pIC50 value.
target: FXR ligand binding domain (Homo sapiens); assay: Radioligand binding assay (radioligand displacement, scintillation proximity); settings: GST-FXR LBD fusion protein on SPA beads, radioligand 2,N-dicyclohexyl-2-[2-(2,4 dimethoxy-phenyl)-benzoimidazol-1-yl]-acetamide, RT 30 minutes
Interpret pIC50 as the negative base-10 log of the concentration measured in mol/L.

// query Notebook entry, FXR ligand binding domain (Homo sapiens) assay: pIC50 of O=C(O)c1ccc(NC(=O)C(c2c3c(nn2-c2ccc(Cl)cc2)CCCC3)C2CCCCC2)c(C(F)(F)F)c1 (racemic) = ?
// result 6.48

// query Notebook entry, FXR ligand binding domain (Homo sapiens) assay: pIC50 of Cc1cc(-c2nnn[nH]2)cc(C)c1OCC(c1c2ccccc2nn1-c1ccc(Cl)cc1)C1CCCCC1 (racemic) = ?
// result 8.40

// query Notebook entry, FXR ligand binding domain (Homo sapiens) assay: pIC50 of O=C(Nc1ccc(-c2nnn[nH]2)cc1F)C(c1c2c(nn1-c1ccc(Cl)cc1)CCCC2)C1CCCCC1 (racemic) = ?
// result 7.28

// query Notebook entry, FXR ligand binding domain (Homo sapiens) assay: pIC50 of O=C(O)c1ccc(OCC(c2c3c(nn2-c2ccc(Cl)cc2)CCCC3)C2CCCCC2)nc1 (racemic) = ?
// result 6.60

// query Notebook entry, FXR ligand binding domain (Homo sapiens) assay: pIC50 of O=C(N[C@H]1CC[C@H](O)CC1)C(c1c2c(nn1-c1ccc(Cl)cc1)CCCC2)C1CCCCC1 (mixture of isomers) = ?
// result 5.52

// query Notebook entry, FXR ligand binding domain (Homo sapiens) assay: pIC50 of O=C(O)C1(Oc2ccc(OCC(c3c4c(nn3-c3ccc(Cl)cc3)CCCC4)C3CCCCC3)cc2)CC1 (racemic) = ?
// result 7.38

// query Notebook entry, FXR ligand binding domain (Homo sapiens) assay: pIC50 of O=C(O)c1ccc(NC(=O)C(c2c3c(nn2-c2ccc(Cl)cc2)CCCC3)C2CCCCC2)c(Cl)c1 (racemic) = ?
// result 7.10

###

target: FXR ligand binding domain (Homo sapiens); test: Radioligand binding assay (radioligand displacement, scintillation proximity); conditions: GST-FXR LBD fusion protein on SPA beads, radioligand 2,N-dicyclohexyl-2-[2-(2,4 dimethoxy-phenyl)-benzoimidazol-1-yl]-acetamide, RT 30 minutes
For each entry below, report its IC50 value.
Report only the number, with the unit nM understood.

// query Notebook entry, FXR ligand binding domain (Homo sapiens) assay: IC50 of Cc1cc(C(=O)O)cc(C)c1OCC(c1c2c(nn1-c1ccc(Cl)cc1)CCCC2)C1CCCCC1 (racemic) = ?
// result 360

// query Notebook entry, FXR ligand binding domain (Homo sapiens) assay: IC50 of N#Cc1ccc(COC(c2c3cc(F)c(F)cc3nn2-c2ccc(Cl)cc2)C2CCCCC2)c(F)c1 (racemic) = ?
// result 7130

// query Notebook entry, FXR ligand binding domain (Homo sapiens) assay: IC50 of O=C(O)c1ccc(NC(=O)C(c2c3c(nn2-c2ccc(Cl)cc2)CCCC3)C2CCCCC2)c(F)c1 (stereo not shown) = ?
// result 1300

// query Notebook entry, FXR ligand binding domain (Homo sapiens) assay: IC50 of CC(C)(Oc1ccc(NC(=O)C(c2c3cc(F)c(F)cc3nn2-c2ccc(Cl)cc2)C2CCCCC2)c(F)c1)C(=O)O (racemic) = ?
// result 570

// query Notebook entry, FXR ligand binding domain (Homo sapiens) assay: IC50 of O=C(Nc1ccc(F)cc1F)C(c1c2c(nn1-c1ccc(Cl)cc1)CCCC2)C1CCCCC1 (racemic) = ?
// result 2830

// query Notebook entry, FXR ligand binding domain (Homo sapiens) assay: IC50 of O=C(O)c1ccc(COC(c2c3cc(F)c(F)cc3nn2-c2ccc(Cl)cc2)C2CCCCC2)cc1 (racemic) = ?
// result 245

// query Notebook entry, FXR ligand binding domain (Homo sapiens) assay: IC50 of Fc1cc2nn(-c3ccc(Cl)cc3)c(C(Oc3ccc(-c4nnn[nH]4)cc3F)C3CCCCC3)c2cc1F (racemic) = ?
// result 58

###

target: FXR ligand binding domain (Homo sapiens, UniProt Q96RI1); test: Radioligand binding assay (radioligand displacement, scintillation proximity); conditions: GST-FXR LBD fusion protein on SPA beads, radioligand 2,N-dicyclohexyl-2-[2-(2,4 dimethoxy-phenyl)-benzoimidazol-1-yl]-acetamide, RT 30 minutes
Sequence (Q96RI1 whole entry, the tested form may be a part): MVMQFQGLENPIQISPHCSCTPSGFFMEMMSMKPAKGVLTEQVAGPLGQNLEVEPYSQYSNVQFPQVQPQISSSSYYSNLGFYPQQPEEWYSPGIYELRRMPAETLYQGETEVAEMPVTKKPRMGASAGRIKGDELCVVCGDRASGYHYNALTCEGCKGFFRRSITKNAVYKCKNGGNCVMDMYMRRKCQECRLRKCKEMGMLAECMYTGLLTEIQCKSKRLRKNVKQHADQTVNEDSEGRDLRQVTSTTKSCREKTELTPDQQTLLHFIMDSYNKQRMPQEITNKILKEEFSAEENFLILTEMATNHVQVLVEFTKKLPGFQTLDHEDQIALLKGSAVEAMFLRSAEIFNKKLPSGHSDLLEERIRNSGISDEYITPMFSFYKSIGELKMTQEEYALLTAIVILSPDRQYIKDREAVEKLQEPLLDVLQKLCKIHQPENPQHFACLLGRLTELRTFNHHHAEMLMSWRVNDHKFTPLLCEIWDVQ
For each entry below, report its IC50 value.
Report only the number, with the unit nM understood.

// query What value of IC50 has been recorded for this entry: Cc1cc(C(=O)O)cc(C)c1OCC(c1c2cc(F)c(F)cc2nn1-c1ccc(Cl)cc1)C1CCCCC1 (racemic)
// result 29

// query What value of IC50 has been recorded for this entry: O=C(NC1CCCCC1)C(c1c2ccccc2nn1-c1ccc(Cl)cc1)C1CCCCC1 (centres unmarked)
// result 1390

// query What value of IC50 has been recorded for this entry: N#Cc1ccc(OCC(c2c3c(nn2-c2ccc(Cl)cc2)CCCC3)C2CCCCC2)c(F)c1 (racemic)
// result 3480

// query What value of IC50 has been recorded for this entry: O=C(O)c1ccc(OCC(c2c3ccccc3nn2-c2ccc(Cl)cc2)C2CCCCC2)nc1 (racemic)
// result 730

// query What value of IC50 has been recorded for this entry: Clc1ccc(-n2nc3ccccc3c2C(OCc2ccc(-c3nnn[nH]3)cc2)C2CCCCC2)cc1 (racemic)
// result 2

// query What value of IC50 has been recorded for this entry: COC(=O)c1ccc(COC(c2c3ccccc3nn2-c2ccc(Cl)cc2)C2CCCCC2)cc1 (racemic)
// result 7540

// query What value of IC50 has been recorded for this entry: Fc1cc2nn(-c3ccc(Cl)cc3)c(C(OCc3ccc(-c4nnn[nH]4)cc3F)C3CCCCC3)c2cc1F (racemic)
// result 14

// query What value of IC50 has been recorded for this entry: O=C(Nc1ccc(OC2(C(=O)O)CC2)cc1F)C(c1c2c(nn1-c1ccc(Cl)cc1)CCCC2)C1CCCCC1 (single isomer, unassigned; (+)) [Example 22]
// result 2060

// query What value of IC50 has been recorded for this entry: Fc1cc2nn(-c3ccc(Cl)cc3)c(C(OCc3ccc(-c4nnn[nH]4)cc3)C3CCCCC3)c2cc1F (racemic)
// result 4

// query What value of IC50 has been recorded for this entry: COc1cccc(C(C(=O)NC2CCCCC2)c2c3ccccc3nn2-c2ccccc2)c1 (centres unmarked)
// result 9170

// query What value of IC50 has been recorded for this entry: N#Cc1ccc(COC(c2c3c(nn2-c2ccc(Cl)cc2)CCCC3)C2CCCCC2)cc1 (racemic)
// result 5620

// query What value of IC50 has been recorded for this entry: O=C(NC1CCCC1)C(O)(c1c2c(nn1-c1ccc(Cl)cc1)CCCC2)C1CCCCC1 (centres unmarked)
// result 4860

// query What value of IC50 has been recorded for this entry: O=C(O)C1(Oc2ccc(OC(c3c4cc(F)c(F)cc4nn3-c3ccc(Cl)cc3)C3CCCCC3)cc2)CC1 (racemic)
// result 170

// query What value of IC50 has been recorded for this entry: N#Cc1ccc(OC(c2c3cc(F)c(F)cc3nn2-c2ccc(Cl)cc2)C2CCCCC2)c(F)c1 (racemic)
// result 870

// query What value of IC50 has been recorded for this entry: O=C(O)c1ccc(NC(=O)C(c2c3ccccc3nn2-c2ccc(Cl)cc2)C2CCCCC2)c(F)c1 (centres unmarked)
// result 4900

// query What value of IC50 has been recorded for this entry: O=C(O)c1ccc(NC(=O)C(c2c3ccccc3nn2-c2ccc(Cl)cc2)C2CCCCC2)cc1 (centres unmarked)
// result 7300

// query What value of IC50 has been recorded for this entry: `O=C(Nc1ccc(OC2(C(=O)O)CC2)cc1F)[C@H](c1c2c(nn1-c1ccc(Cl)cc1)CCCC2)C1CCCCC1`
// result 21

// query What value of IC50 has been recorded for this entry: O=C(O)c1ccc(NC(=O)C(c2c3c(nn2-c2ccc(Cl)cc2)CCCC3)C2CCCCC2)cc1 (centres unmarked)
// result 800

// query What value of IC50 has been recorded for this entry: O=C(O)c1ccc(NC(=O)C(c2c3cc(F)c(F)cc3nn2-c2ccc(Cl)cc2)C2CCCCC2)c(F)c1 (racemic)
// result 1700

// query What value of IC50 has been recorded for this entry: Cc1cc(C(=O)O)cc(C)c1OCC(c1c2ccccc2nn1-c1ccc(Cl)cc1)C1CCCCC1 (racemic)
// result 26

// query What value of IC50 has been recorded for this entry: Cc1cc(C(=O)O)cc(C)c1OC(c1c2cc(F)c(F)cc2nn1-c1ccc(Cl)cc1)C1CCCCC1 (racemic)
// result 2130

// query What value of IC50 has been recorded for this entry: Fc1cc(-c2nnn[nH]2)ccc1OCC(c1c2c(nn1-c1ccc(Cl)cc1)CCCC2)C1CCCCC1 (racemic)
// result 109

// query What value of IC50 has been recorded for this entry: O=C(NC1CCCCC1)C(c1c2ccccc2nn1-c1ccccc1)C1CCCCC1 (centres unmarked)
// result 1920

// query What value of IC50 has been recorded for this entry: O=C(NC1CCCCC1)C(c1c2cc(F)c(F)cc2nn1-c1ccc(Cl)cc1)C1CCCCC1 (racemic)
// result 680

// query What value of IC50 has been recorded for this entry: Fc1cc2nn(-c3ccc(Cl)cc3)c(C(COc3ccc(-c4nnn[nH]4)cc3F)C3CCCCC3)c2cc1F (racemic)
// result 400

// query What value of IC50 has been recorded for this entry: Clc1ccc(-n2nc3c(c2C(CNc2ccc(-c4nnn[nH]4)cc2)C2CCCCC2)CCCC3)cc1 (racemic)
// result 4

// query What value of IC50 has been recorded for this entry: O=C(O)c1ccc(SCC(c2c3c(nn2-c2ccc(Cl)cc2)CCCC3)C2CCCCC2)cc1 (racemic)
// result 200

// query What value of IC50 has been recorded for this entry: O=C(Nc1ccc(OC2(C(=O)O)CC2)cc1F)C(c1c2c(nn1-c1ccc(Cl)cc1)CCCC2)C1CCCCC1 (racemic) [Example 16]
// result 223

// query What value of IC50 has been recorded for this entry: O=C(O)c1ccc(NC(=O)C(O)(c2c3c(nn2-c2ccc(Cl)cc2)CCCC3)C2CCCCC2)c(F)c1 (centres unmarked)
// result 2050
